Biological target: hGIPR (Homo sapiens)
Sequence (P48546 22-466): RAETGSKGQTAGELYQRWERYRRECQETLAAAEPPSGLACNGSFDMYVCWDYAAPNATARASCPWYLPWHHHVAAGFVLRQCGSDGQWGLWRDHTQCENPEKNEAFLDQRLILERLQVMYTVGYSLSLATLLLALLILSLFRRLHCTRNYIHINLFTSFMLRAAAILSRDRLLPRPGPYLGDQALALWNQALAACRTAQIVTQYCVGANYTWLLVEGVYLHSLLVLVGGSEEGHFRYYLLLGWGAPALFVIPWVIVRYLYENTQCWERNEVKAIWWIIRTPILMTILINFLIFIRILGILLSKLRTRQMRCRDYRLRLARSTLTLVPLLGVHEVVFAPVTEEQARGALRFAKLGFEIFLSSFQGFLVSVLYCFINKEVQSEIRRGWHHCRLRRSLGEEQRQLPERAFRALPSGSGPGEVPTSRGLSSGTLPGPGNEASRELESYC
Assay: Functional cAMP activation in the presence of 0.1% casein (no HSA);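 on Relative cAMP EC50, hGIPR: intracellular cAMP rise after 30 min at 37 °C read by HTRF against a standard curve, scaled between buffer alone (0%) and top control ligand concentration (100%), four-parameter fit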
Type: cell-based
Details: in the presence of 0.1% casein (no HSA); geometric mean; read-out: Relative cAMP EC50, hGIPR
Starred links: 1 amine or outer side, 2 acyl side, 3 side chain; linkers in the order of their positions; H or OH if unused. Non-standard residues stand in square brackets, D forms with d. Groups on a side chain read outwards from the residue. No end group written: not given here. *: point of attachment. C20 diacid = O=C(O)CCCCCCCCCCCCCCCCCCC(=O)*; C18 diacid = O=C(O)CCCCCCCCCCCCCCCCC(=O)*; αMePhe(2-F) = C[C@](N)(Cc1ccccc1F)C(=O)O; γGlu = O=C(O)[C@H](CCC(=O)[*:2])N[*:1]; αMe4Pal = C[C@](N)(Cc1ccncc1)C(=O)O; αMeY = C[C@](N)(Cc1ccc(O)cc1)C(=O)O; 4Pal = N[C@@H](Cc1ccncc1)C(=O)O; αMeL = CC(C)C[C@](C)(N)C(=O)O; αMeS = C[C@](N)(CO)C(=O)O; Orn = NCCC[C@H](N)C(=O)O; AEEA = NCCOCCOCC(=O)O; Aib = CC(C)(N)C(=O)O
measurement.label: pEC50
Note on pEC50: it is the negative log10 of concentration, concentration in mol/L.

substance="Y[Aib]QGTFTSD[4Pal]SQ[αMeL]LDKK([AEEA-γGlu-C18 diacid])AQ[Aib]AFIE[αMeY]LIEGGPSSGAPPPSGS-NH2 [Example 838]" assayed_system="hGIPR (Homo sapiens)" recorded_measurement=9.65
substance="H-Y[Aib]QGTFTSDFS[Orn][αMeL]LDKK([AEEA-γGlu-C20 diacid])AQ[Aib]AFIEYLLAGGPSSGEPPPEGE-NH2 [Example 102]" assayed_system="hGIPR (Homo sapiens)" recorded_measurement=9.23
substance="H-Y[Aib]QGT[αMePhe(2-F)]TSD[4Pal][αMeS]I[αMeL]LD[Orn]K([γGlu-γGlu-C18 diacid])AQ[αMe4Pal]EFI[dE][αMeY]LVEGGPSSGEPPPSGE-NH2 [Example 1161]" assayed_system="hGIPR (Homo sapiens)" recorded_measurement=11.01
substance="H-Y[Aib]QGTFTSD[4Pal]SQ[αMeL]LDKK([AEEA-γGlu-C18 diacid])AQ[αMe4Pal]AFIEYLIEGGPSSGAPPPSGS-NH2 [Example 826]" assayed_system="hGIPR (Homo sapiens)" recorded_measurement=9.24
substance="H-Y[Aib]QGTFTSDYSK[αMeL]LDKK([AEEA-γGlu-C20 diacid])AQQAFIEYLLAGGPSSGEPPPSGE-NH2 [Example 344]" assayed_system="hGIPR (Homo sapiens)" recorded_measurement=9.39
substance="H-Y[Aib]QGTFTSD[4Pal]SQ[αMeL]LD[Orn]K([γGlu-γGlu-C18 diacid])AQ[αMe4Pal]AFIEYLIE[Aib]GPSSGAPPPSGSEE-NH2 [Example 937]" assayed_system="hGIPR (Homo sapiens)" recorded_measurement=9.65
substance="H-Y[Aib]QGTFTSDFSK[αMeL]LDKK([AEEA-γGlu-C20 diacid])AQ[Aib]AFIEYLLEGGPSSGAPPP[γGlu]EG-NH2 [Example 52]" assayed_system="hGIPR (Homo sapiens)" recorded_measurement=9.35
substance="H-Y[Aib]QGTFTSDFS[Orn][αMeL]LDKK([AEEA-γGlu-C20 diacid])AQ[Aib]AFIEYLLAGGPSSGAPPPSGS[AEEA]-NH2 [Example 83]" assayed_system="hGIPR (Homo sapiens)" recorded_measurement=9.73

Measured pEC50 of H-Y[Aib]QGTFTSD[4Pal]SK[αMeL]LDKK([γGlu-γGlu-C18 diacid])AQ[Aib]AFIEYLIE[Aib]GPSSGAPPPSGS-NH2 [Example 907] : 9.99

Entry under test: Y[Aib]QGT[αMePhe(2-F)]TSD[4Pal][αMeS]I[αMeL]LD[Orn]K([AEEA-γGlu-C18 diacid])AQ[αMe4Pal]EFI[dE][αMeY]LIEGGPSSGEPPPSGE-NH2 [Example 1141] . Its pEC50 was 11.04

Please fill in: pEC50 reported for H-Y[Aib]QGTFTSDFSK[αMeL]LDKK([AEEA-γGlu-C18 diacid])AQ[Aib]AFIEYLLE[Aib]GPSSGAPPPSEG-NH2 [Example 57] = 10.01

====

Target: hGLP-1R (Homo sapiens)
Sequence (P43220 24-463): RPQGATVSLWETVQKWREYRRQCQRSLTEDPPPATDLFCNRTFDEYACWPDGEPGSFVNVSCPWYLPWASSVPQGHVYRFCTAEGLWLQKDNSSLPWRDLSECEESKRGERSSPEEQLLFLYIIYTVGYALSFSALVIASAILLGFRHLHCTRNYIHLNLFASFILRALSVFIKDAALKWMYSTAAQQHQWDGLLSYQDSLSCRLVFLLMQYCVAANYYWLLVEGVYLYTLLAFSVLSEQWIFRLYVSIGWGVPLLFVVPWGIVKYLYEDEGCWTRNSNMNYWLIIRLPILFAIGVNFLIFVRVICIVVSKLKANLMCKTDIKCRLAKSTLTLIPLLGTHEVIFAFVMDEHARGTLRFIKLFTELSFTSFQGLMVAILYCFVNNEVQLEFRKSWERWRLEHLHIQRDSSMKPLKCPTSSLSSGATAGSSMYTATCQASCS
Assay: Functional cAMP activation in the presence of 0.1% casein (no HSA);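 on Relative cAMP EC50, hGLP-1R: intracellular cAMP rise after 30 min at 37 °C read by HTRF, normalized between buffer only (0%) and maximal control ligand (100%), four-parameter variable-slope fit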
Format: cell-based
Conditions: 0.1% casein, no HSA; geometric mean; read-out: Relative cAMP EC50, hGLP-1R
Starred links: 1 amine or outer side, 2 acyl side, 3 side chain; linkers in the order of their positions; H or OH if unused. Non-standard residues stand in square brackets, D forms with d. Groups on a side chain read outwards from the residue. No end group written: not given here. *: point of attachment. C18 diacid = O=C(O)CCCCCCCCCCCCCCCCC(=O)*; αMePhe(2-F) = C[C@](N)(Cc1ccccc1F)C(=O)O; γGlu = O=C(O)[C@H](CCC(=O)[*:2])N[*:1]; αMe4Pal = C[C@](N)(Cc1ccncc1)C(=O)O; αMeY = C[C@](N)(Cc1ccc(O)cc1)C(=O)O; 4Pal = N[C@@H](Cc1ccncc1)C(=O)O; αMeL = CC(C)C[C@](C)(N)C(=O)O; αMeS = C[C@](N)(CO)C(=O)O; Orn = NCCC[C@H](N)C(=O)O; AEEA = NCCOCCOCC(=O)O; Aib = CC(C)(N)C(=O)O
measurement.label: pEC50
In plain terms, pEC50 is the concentration in mol/L turned into minus its base-10 logarithm.

Known pEC50 results, listed for orientation:
substance="Y[Aib]QGT[αMePhe(2-F)]TSD[4Pal][αMeS]I[αMeL]LD[Orn]K([γGlu-γGlu-C18 diacid])AQ[αMe4Pal]EFI[dE][αMeY]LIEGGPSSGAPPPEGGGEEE-NH2 [Example 1221]" assayed_system="hGLP-1R (Homo sapiens)" recorded_measurement=9.08
substance="Y[Aib]QGT[αMePhe(2-F)]TSD[4Pal][αMeS]I[αMeL]LD[Orn]K([AEEA-γGlu-C18 diacid])AQ[αMe4Pal]EFI[dE][αMeY]LIEGGPPS[Aib][Orn]PPP[Orn]SE-NH2 [Example 1196]" assayed_system="hGLP-1R (Homo sapiens)" recorded_measurement=9.38
substance="H-Y[Aib]QGT[αMePhe(2-F)]TSD[4Pal]SI[αMeL]LD[Orn][Orn]([γGlu-γGlu-C18 diacid])AQ[αMe4Pal][Orn]FI[dE][αMeY]LIEGGPSSGEPPPETE-NH2 [Example 1209]" assayed_system="hGLP-1R (Homo sapiens)" recorded_measurement=9.39

Next up:
pEC50 for hGLP-1R (Homo sapiens) with input Y[Aib]QGT[αMePhe(2-F)]TSD[4Pal][αMeS]I[αMeL]LD[Orn]QAQ[αMe4Pal]EFI[dE][αMeY]LIEGGPSSGAPPPSGGGE-NH2 [Example 1234] equals 8.93
